Origin of the recorded values: patent US9416187B2

Assayed System: T1, mouse CD20 (mouse, UniProt P19437)
T1 sequence: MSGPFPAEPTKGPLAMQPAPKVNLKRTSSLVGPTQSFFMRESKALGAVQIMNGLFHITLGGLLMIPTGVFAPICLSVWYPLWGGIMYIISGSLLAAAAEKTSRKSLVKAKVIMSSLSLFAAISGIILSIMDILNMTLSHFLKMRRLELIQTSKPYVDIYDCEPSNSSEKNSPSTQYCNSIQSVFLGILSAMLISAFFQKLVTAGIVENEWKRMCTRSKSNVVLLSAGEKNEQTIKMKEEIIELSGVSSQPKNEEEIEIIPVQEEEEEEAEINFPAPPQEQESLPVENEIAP
Assay Remarks: flow cytometry, spleen CD19+ B cells, 0.5 µg/mL antibody
Measurement Label: B cell reactivity (mean linear fluorescence intensity)
Answers are plain numbers.

[ask] Which B cell reactivity (mean linear fluorescence intensity) is listed for MB20-18 monoclonal antibody (antibody, V domains shown) VH: EVQLQESGLDLVKPGASVKISCKASGYTFTDYYMKWVKQSHGKSLDWIGDINPNNGDIIYNQKFEGKATLTVDKSSSTAYMELRSLTSEDSAVYYCARERFAYWGQGTLVTVSA VL: SIVMTQTPKFLLVSTGDRVTITCKASQTVTNDLAWYQQKPGQSPKLLIYYASNRYTGVPDRFTGSGYGTDFTFTINTVQAEDLAVYFCQQDYSSPLTFGAGTKLELKR ?
[reply] 729

[ask] Item under review: MB20-1 monoclonal antibody (antibody, V domains shown) VH: EVQLQESGGGLVQPGGSLKLSCAASGFTFSDYGMAWVRQAPRKGPEWVAFISNLAYSIYYADTVTGRFTISRENAKNTLYLEMSSLRSEDTAMYFCTRTGYYALDYWGQGTSVTVSS VL: NIMMTQSPSSLAVSAGEKVTMRCKSSQSVLYSSKRKNYLAWYQQKPGKSPTLLIYWASTRESGVPDRFTGSGSGTDFTLTITSVQAEDLAVYYCHQYLSSFTFGGGTKLEIKR . Reported B cell reactivity (mean linear fluorescence intensity)?
[reply] 69

Then this binder:
[ask] What B cell reactivity (mean linear fluorescence intensity) value was documented for this binder, MB20-10 monoclonal antibody (antibody, V domains shown) VH: EVQLQESGPDLVKPGASVKISCKASGYTFTDYYMKWVKQSHGKSLDWIGDINPNNGDIIYNQKFEGKATLTVDKSSSTAYMELRSLTSEDSAVYYCARERFAYWGQGTLVTVSA VL: EIVLTQSPTTMAASPGEKITITCSVSSNIRSNYLHWYQQKPGFSPKLLIYRTSNLASGVPARFSGSGSGTSYSLTIGTMKAEDVATYYCQQGSSIPLTFGAGTKLELKR ?
[reply] 317
